# Target Desc: Cannabinoid receptor 1 (Homo sapiens)
# Sequence (P21554 whole entry): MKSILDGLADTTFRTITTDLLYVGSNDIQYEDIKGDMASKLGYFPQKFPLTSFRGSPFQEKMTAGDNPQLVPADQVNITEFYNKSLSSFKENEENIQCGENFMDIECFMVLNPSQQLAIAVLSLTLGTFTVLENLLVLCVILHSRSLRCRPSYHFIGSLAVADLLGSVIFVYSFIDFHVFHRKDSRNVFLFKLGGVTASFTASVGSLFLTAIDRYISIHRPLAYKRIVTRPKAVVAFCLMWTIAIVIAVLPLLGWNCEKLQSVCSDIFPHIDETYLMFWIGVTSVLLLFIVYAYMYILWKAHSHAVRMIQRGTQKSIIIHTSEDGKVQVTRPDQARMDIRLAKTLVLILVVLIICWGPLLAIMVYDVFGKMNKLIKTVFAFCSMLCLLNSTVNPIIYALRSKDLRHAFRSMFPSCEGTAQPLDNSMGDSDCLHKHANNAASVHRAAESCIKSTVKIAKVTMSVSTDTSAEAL
# Assay: Inverse agonist activity at human CB1 receptor by [35S]GTPgammaS incorporation assay relative to rimonabant
# Assay type: functional
# Set-up: concentration or dose not given beside the values
Measured Property: Activity (%)

Here's what some known entries look like.
In: Which measured Activity value corresponds to CC1CC(C)CN(S(=O)(=O)c2ccc(F)c(C(=O)NC(c3ccccc3)c3ccccc3)c2)C1 (stereo unspecified) ?
Out: 50

In: Any idea what its Activity is? The compound is COc1ccccc1NC(=O)C(C)Sc1nc(-c2ccc(C)cc2)nc2c1COC(C)(C)C2 (stereo unspecified)
Out: 91

In: Bench note: what Activity did Cc1cc(C)c(OCC(=O)Nc2sc3c(c2C(=O)NC2CCS(=O)(=O)C2)CCCC3)c(C)c1 (stereo unspecified) show?
Out: 60

In: Fill in: Activity of CCOC(=O)N1CCN(C(=O)c2cc(-c3ccccc3Cl)nn2-c2ccc(C)cc2C)CC1 is ___
Out: 44

In: I would be grateful if you could share the reported Activity for Cc1ccc(C2c3cccn3-c3ccccc3N2C(=O)CN(C(=O)C2CCCC2)C2CC2)cc1 (stereo unspecified) .
Out: 91

[I] COc1ccc(C2c3cccn3-c3ccccc3N2C(=O)CN(C(=O)NC(C)(C)C)C(C)C)cc1 (stereo unspecified)
[II] O=C(Nc1ccccc1Oc1ccccc1)c1ccc(S(=O)(=O)N2CCc3ccccc32)cc1
In: Decide: I or II , by lowest recorded Activity. Reply with the label of the item you choose.
Out: II
(II: 62%, I: 103%)
